src = PubChem BioAssay AID1942

biological target: Potassium voltage-gated channel subfamily KQT member 2 (Rattus norvegicus); experiment: KCNQ2 potentiation in CHO cells – cell-based, FluxOR thallium flux, counter-screen for hERG block protector project, confirmation (AID 1942); details: FluxOR thallium flux fluorescence, at 10 µM;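 note: normalized value minus buffer-control mean plus three SD of buffer wells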
The campaign covered roughly 2,400 compounds. About 580 (24%) were called active.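 Rule for the calls: active = activity change at or above the mean plus 3 SD of buffer wells without dofetilide, per plate; inactive = the rest.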 Only a sample is shown.
Labels: 1.0 (active), 0.0 (inactive)

MOLECULE	SYSTEM NAME	CLASSIFICATION
Cc1nnc(SCC(=O)Nc2nccs2)n1N	Potassium voltage-gated channel subfamily KQT member 2 (Rattus norvegicus)	0.0
CSCC[C@H](NC(=O)Nc1ccc(C)cc1C)C(=O)O	Potassium voltage-gated channel subfamily KQT member 2 (Rattus norvegicus)	0.0
CCOc1ccc(S(=O)(=O)Nc2nc3ccccc3nc2-n2ccc(=NC(=O)c3cccs3)cc2)cc1	Potassium voltage-gated channel subfamily KQT member 2 (Rattus norvegicus)	0.0
Cn1cc(/C=C2\SC(=O)NC2=S)c2ccccc21	Potassium voltage-gated channel subfamily KQT member 2 (Rattus norvegicus)	0.0
COC(=O)c1c(NC(=O)C2CC=CCC2C(=O)O)sc(C)c1C (stereo unspecified)	Potassium voltage-gated channel subfamily KQT member 2 (Rattus norvegicus)	0.0
CCN1C(=O)/C(=C/N2CCc3ccccc32)SC1=S	Potassium voltage-gated channel subfamily KQT member 2 (Rattus norvegicus)	0.0
O=c1c2[nH]c3ccccc3c2nc2n1CCCS2	Potassium voltage-gated channel subfamily KQT member 2 (Rattus norvegicus)	1.0
CCC(C)(C)C1CCc2c(sc(NC(=O)c3ccccc3C(=O)O)c2C#N)C1 (stereo unspecified)	Potassium voltage-gated channel subfamily KQT member 2 (Rattus norvegicus)	1.0
CCn1ccnc1CN1CCCC(CO)(Cc2cccc(OC)c2)C1 (stereo unspecified)	Potassium voltage-gated channel subfamily KQT member 2 (Rattus norvegicus)	0.0
Cc1onc(-c2ccccc2)c1C(=O)NC(=S)Nc1sc2c(c1C#N)CCC(C)C2 (stereo unspecified)	Potassium voltage-gated channel subfamily KQT member 2 (Rattus norvegicus)	0.0
Cc1ccccc1C(=O)NC(=S)Nc1sc2c(c1C#N)CCC(C)C2 (stereo unspecified)	Potassium voltage-gated channel subfamily KQT member 2 (Rattus norvegicus)	0.0

* * *

biological target: Potassium voltage-gated channel subfamily KQT member 2 (Rattus norvegicus); assay: KCNQ2 potentiation in CHO cells – cell-based, FluxOR thallium flux, counter-screen for hERG block protector project, confirmation (AID 1942); conditions: FluxOR thallium flux fluorescence, at 10 µM;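 note: normalized value minus buffer-control mean plus three SD of buffer wells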
Among all 2,400 compounds or so, about 580 (24%) were called active.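 The calls were made as follows: active = activity change at or above the mean plus 3 SD of buffer wells without dofetilide, per plate; inactive = the rest.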 The list is a sample of the results.
Labels: True (active), False (inactive)

MOLECULE	SYSTEM NAME	CLASSIFICATION
CCC1=NN(C(=O)c2ccc(Cl)cc2)C(O)(c2ccc(C)cc2)C1 (configuration not stated)	Potassium voltage-gated channel subfamily KQT member 2 (Rattus norvegicus)	False
C=CCNC(=O)CC(=O)N/N=C/c1cccs1	Potassium voltage-gated channel subfamily KQT member 2 (Rattus norvegicus)	False
COC(=O)CSc1nnc(COc2ccc3ccccc3c2)o1	Potassium voltage-gated channel subfamily KQT member 2 (Rattus norvegicus)	False
O=C(NCc1cccc(Cl)c1)c1ccncc1	Potassium voltage-gated channel subfamily KQT member 2 (Rattus norvegicus)	False
Cc1cc(S(=O)(=O)N2CCOCC2)ccc1OCC(=O)NCc1ccco1	Potassium voltage-gated channel subfamily KQT member 2 (Rattus norvegicus)	False
Cc1ccccc1NC(=O)C(=O)NNC(=O)COc1ccc2ccccc2c1	Potassium voltage-gated channel subfamily KQT member 2 (Rattus norvegicus)	True
CN(C)c1oc(-c2ccccc2[N+](=O)[O-])nc1C#N	Potassium voltage-gated channel subfamily KQT member 2 (Rattus norvegicus)	False
COc1cc(/C=C2/C(=O)NN(c3ccccc3)C2=O)cc(Br)c1O	Potassium voltage-gated channel subfamily KQT member 2 (Rattus norvegicus)	False
O=C(NCc1ccc(Cl)cc1)C1CCN(S(=O)(=O)c2cccc3nonc23)CC1	Potassium voltage-gated channel subfamily KQT member 2 (Rattus norvegicus)	False
Cc1ccc2[nH]cc(CCNC(=O)/C=C/c3ccco3)c2c1	Potassium voltage-gated channel subfamily KQT member 2 (Rattus norvegicus)	False
COc1ccc(NC(=O)C(=O)NNC(=O)COc2ccc(Cl)cc2)c(OC)c1	Potassium voltage-gated channel subfamily KQT member 2 (Rattus norvegicus)	True
C/C(=N/NC(=O)c1ccncc1)c1ccc2c(c1)OCO2	Potassium voltage-gated channel subfamily KQT member 2 (Rattus norvegicus)	False
O=c1cc(O)c2sc(Nc3ccc(F)c(Cl)c3)nc2[nH]1	Potassium voltage-gated channel subfamily KQT member 2 (Rattus norvegicus)	False
O=C1NCCN1Cc1ccccc1F	Potassium voltage-gated channel subfamily KQT member 2 (Rattus norvegicus)	False
O=C(CNC1CCCCCC1)Nc1ccccc1N1CCOCC1	Potassium voltage-gated channel subfamily KQT member 2 (Rattus norvegicus)	False
COc1cccc(N2CCN(CC(=O)NC(=O)NCc3ccco3)CC2)c1	Potassium voltage-gated channel subfamily KQT member 2 (Rattus norvegicus)	False
O=C(NCc1ccco1)C1CCN(C(=O)Cc2ccccc2)CC1	Potassium voltage-gated channel subfamily KQT member 2 (Rattus norvegicus)	False
N#C/C(=N/Nc1ccc([N+](=O)[O-])cc1)C(=N)N1CCCCC1	Potassium voltage-gated channel subfamily KQT member 2 (Rattus norvegicus)	False
COC(=O)c1c(N2C(=O)CC(Sc3ncccc3C(=O)O)C2=O)sc(C)c1C (configuration not stated)	Potassium voltage-gated channel subfamily KQT member 2 (Rattus norvegicus)	False
Cn1c(O)c(N=Nc2nc(-c3ccccc3)cs2)c2ccccc21	Potassium voltage-gated channel subfamily KQT member 2 (Rattus norvegicus)	True
Cc1sc2nc(C(C)C)nc(SCC(=O)NCc3ccco3)c2c1C	Potassium voltage-gated channel subfamily KQT member 2 (Rattus norvegicus)	True
CNC(=S)N/N=C/c1cc(Br)cc(Br)c1O	Potassium voltage-gated channel subfamily KQT member 2 (Rattus norvegicus)	False
C=CCN(CC=C)C(=S)NC(=O)c1ccc(-c2ccccc2)cc1	Potassium voltage-gated channel subfamily KQT member 2 (Rattus norvegicus)	True
Cc1ccccc1OCC(=O)N=Nc1c(O)n(C)c2ccccc12	Potassium voltage-gated channel subfamily KQT member 2 (Rattus norvegicus)	False
O=C(NNC(=O)C12CC3CC(CC(O)(C3)C1)C2)c1ccccc1O	Potassium voltage-gated channel subfamily KQT member 2 (Rattus norvegicus)	False
Cc1ccccc1NC(=O)CC1S/C(=N/c2nccs2)N(C)C1=O (configuration not stated)	Potassium voltage-gated channel subfamily KQT member 2 (Rattus norvegicus)	False
CCCN(CC1CC1)C(=S)Nc1ccccc1F	Potassium voltage-gated channel subfamily KQT member 2 (Rattus norvegicus)	False
CC(C)(C)SCCNC(=O)CN1C(=O)c2ccccc2S1(=O)=O	Potassium voltage-gated channel subfamily KQT member 2 (Rattus norvegicus)	False
S=c1[nH]c(-c2ccccc2)cn1/N=C/c1cccc2ccccc12	Potassium voltage-gated channel subfamily KQT member 2 (Rattus norvegicus)	False
C=CCN(CC=C)C(=S)NC(=O)c1ccc([N+](=O)[O-])cc1	Potassium voltage-gated channel subfamily KQT member 2 (Rattus norvegicus)	True
CCn1c(SCC(=O)NC(=O)NCc2ccco2)nc2sc(C)c(C)c2c1=O	Potassium voltage-gated channel subfamily KQT member 2 (Rattus norvegicus)	True
O=C(O)c1cccc2cc(-c3ccccc3)oc(=O)c12	Potassium voltage-gated channel subfamily KQT member 2 (Rattus norvegicus)	False
C=CCN(c1ccc(C(=O)NC(C)C)cc1)S(C)(=O)=O	Potassium voltage-gated channel subfamily KQT member 2 (Rattus norvegicus)	False
O=C(COc1ccc2ccccc2c1)NNC(=O)C(=O)Nc1ccccc1	Potassium voltage-gated channel subfamily KQT member 2 (Rattus norvegicus)	True
COc1ccc(NC(=O)C(=O)NNC(=O)COc2ccc(OC)cc2)cc1	Potassium voltage-gated channel subfamily KQT member 2 (Rattus norvegicus)	False
O=C(Nn1c(O)c(C=C2N=c3ccccc3=N2)sc1=S)c1cccc(Cl)c1	Potassium voltage-gated channel subfamily KQT member 2 (Rattus norvegicus)	False
O=C(NCCOC(=O)c1ccc([N+](=O)[O-])cc1)c1cccnc1	Potassium voltage-gated channel subfamily KQT member 2 (Rattus norvegicus)	False
C=CCc1cccc(C2Nc3ccccc3C(=O)N2O)c1O (configuration not stated)	Potassium voltage-gated channel subfamily KQT member 2 (Rattus norvegicus)	False
C=CCN(CC=C)C(=S)NC(=O)Cc1cccc2ccccc12	Potassium voltage-gated channel subfamily KQT member 2 (Rattus norvegicus)	True
CCN(CC)C(=S)NC(=O)c1ccc(F)cc1	Potassium voltage-gated channel subfamily KQT member 2 (Rattus norvegicus)	False
O=C(COc1coc(CN2CCc3ccccc3C2)cc1=O)Nc1cccc(Cl)c1	Potassium voltage-gated channel subfamily KQT member 2 (Rattus norvegicus)	False
CCCCCN(C(=O)CCC(=O)OCC(=O)N(C)C1CCCCC1)c1c(N)n(CCCC)c(=O)[nH]c1=O	Potassium voltage-gated channel subfamily KQT member 2 (Rattus norvegicus)	False
CCOC(=O)c1nnsc1NC(C)=O	Potassium voltage-gated channel subfamily KQT member 2 (Rattus norvegicus)	False
C=CCSC1=C(C#N)C(c2ccccc2)CC(=O)N1 (configuration not stated)	Potassium voltage-gated channel subfamily KQT member 2 (Rattus norvegicus)	False
COc1ccc(OCC(=O)NNC(=O)C(=O)Nc2cc(OC)ccc2OC)cc1	Potassium voltage-gated channel subfamily KQT member 2 (Rattus norvegicus)	True
CCC(=O)Nc1cc(-c2nnc(OC)c3ccccc23)ccc1N1CCOCC1	Potassium voltage-gated channel subfamily KQT member 2 (Rattus norvegicus)	False
O=C(COc1ccc2ccccc2c1)Nc1ccc(Br)cc1C(=O)O	Potassium voltage-gated channel subfamily KQT member 2 (Rattus norvegicus)	False
